The measurements presented in this section are drawn from patent US10428140B2.

target.system: SEAP-His (Homo sapiens, UniProt P05187)
Sequence (P05187 23-511 limits assumed): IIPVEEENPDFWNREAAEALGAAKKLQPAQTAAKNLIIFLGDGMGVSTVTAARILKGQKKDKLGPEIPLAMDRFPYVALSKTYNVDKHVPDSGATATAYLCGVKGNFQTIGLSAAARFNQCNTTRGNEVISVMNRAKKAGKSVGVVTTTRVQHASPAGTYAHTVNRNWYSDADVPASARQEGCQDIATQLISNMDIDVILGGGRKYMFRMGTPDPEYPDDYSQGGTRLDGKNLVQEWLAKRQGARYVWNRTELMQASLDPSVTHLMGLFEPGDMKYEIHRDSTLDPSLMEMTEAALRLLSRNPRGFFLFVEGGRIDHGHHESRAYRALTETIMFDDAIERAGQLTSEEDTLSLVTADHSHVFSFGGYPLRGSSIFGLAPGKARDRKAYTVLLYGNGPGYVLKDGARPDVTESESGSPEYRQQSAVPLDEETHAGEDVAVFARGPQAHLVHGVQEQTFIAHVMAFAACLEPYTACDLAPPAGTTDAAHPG
experimental.protocol: Selectivity ELISA of humanized antibodies for human Eph receptor
Assay type: binding
assay.conditions: coated protein 1 nM
readout.name: SEAP-His: absorbance at 450 nm, percentage with respect to hEphA4-SEAP-His as 100% (%)
// return numeric value only (unit: %, not printed)

Qu. State its SEAP-His: absorbance at 450 nm, percentage with respect to hEphA4-SEAP-His as 100% for this molecule: 96 (antibody, V domains shown, constant regions without entry; synthetic humanized antibody light chain variable region sequence; synthetic humanized antibody heavy chain variable region sequence) VL: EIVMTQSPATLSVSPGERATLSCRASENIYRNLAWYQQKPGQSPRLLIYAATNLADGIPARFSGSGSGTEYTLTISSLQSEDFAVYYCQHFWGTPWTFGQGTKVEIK VH: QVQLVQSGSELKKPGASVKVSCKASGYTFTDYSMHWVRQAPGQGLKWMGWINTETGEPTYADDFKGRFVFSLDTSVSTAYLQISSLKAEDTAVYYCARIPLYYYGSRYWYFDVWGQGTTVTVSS
Ans. 5.5
